# System: 832693-133-R-J1-PDC multi-cell spheroids, viability;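 also: spheroids exposed to the drugs for one week before the viability readout; 100% = DMSO vehicle control wells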
# method notes: Anticancer human tumor 832693-133-R-J1-PDC patient-derived head and neck squamous carcinoma cell line growth inhibition [IpAb]
# assay conditions: second compound 0.1 µM; first compound 0.3 µM; hits give low values
measured attribute: viability, T/C (%)

* CC(=O)c1c(C)c2cnc(Nc3ccc(N4CCNCC4)cn3)nc2n(C2CCCC2)c1=O + CCN1CCN(Cc2ccc(Nc3ncc(F)c(-c4cc(F)c5nc(C)n(C(C)C)c5c4)n3)nc2)CC1 | 56
* CC(C)(C)c1cnc(CSc2cnc(NC(=O)C3CCNCC3)s2)o1 + CC(C)NCC(C(=O)N1CCN(c2ncnc3c2C(C)CC3O)CC1)c1ccc(Cl)cc1 | 22.2
* CC(C)(C)c1cnc(CSc2cnc(NC(=O)C3CCNCC3)s2)o1 + CCN1CCN(Cc2ccc(Nc3ncc(F)c(-c4cc(F)c5nc(C)n(C(C)C)c5c4)n3)nc2)CC1 | 6.06

Data provenance is PubChem BioAssay AID2060337.
